method-description: nonselective antagonists in TAAR1 counter-screen cells, counter-screen for hTAAR1 antagonist project, cell-based, fluorescence, calcium (AID 651780);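 further: CHO-Ga16 host cells stimulated with ATP at an EC80 level; 0% = agonist EC80 plus vehicle and 100% = vehicle without agonist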
condition-label: counterscreen cell line, antagonist mode, at 3 µM, stronger effect = higher value
Among all 2,400 compounds or so, about 1,800 (75%) were called active. So high a share suggests a set chosen from earlier hits. Not all results are given here.
measured-quantity: inhibition (%)
Please state the figure in %; there is no need to write the unit.

The compound listed as N#Cc1cccc(NC(=O)COC(=O)c2ccccc2C(=O)c2ccc(Cl)c([N+](=O)[O-])c2)c1 has a reported inhibition of 36.1

Recorded inhibition (compound C=CCn1c(SCc2cccc(F)c2)nc2cc(C(=O)N3CCC(C(N)=O)CC3)ccc2c1=O ): 25.6

The compound listed as CCN1CCc2c(C#N)c(NCc3ccccc3)nc(NCCO)c2C1 has a reported inhibition of 5.04

Entry COc1ccc(CC(=O)Nc2c(C(N)=O)oc3ccccc23)cc1 , inhibition reported as 22.3

inhibition reading for C/C(=N\Nc1ncc(Cl)cc1Cl)c1ccc(S(=O)(=O)NCc2ccco2)cc1 : 28.7

// inhibition value for Cc1ccc2c(c1)N(CC(=O)NCCc1ccc(Cl)cc1)C(=O)c1cccnc1O2 : 22.1

// recorded inhibition for Cc1ccc2cccc(OCCCOc3ccccc3CO)c2n1 : 20.3

inhibition reading for Cc1ccc(SCc2c(C(=O)N/N=C/c3cccnc3)nnn2-c2nonc2N)cc1 : 38.4

Measured inhibition, C[C@@H]1CN([C@@H](C)CO)S(=O)(=O)c2ccc(C#Cc3cccc(F)c3)cc2O[C@H]1CN(C)S(=O)(=O)c1cn(C)cn1 : 38.3

compound COc1cc(SC#N)ccc1N=Cc1c(C)[nH]n(-c2ccc(C)cc2)c1=O , inhibition observed: 87.2

* * *

method-description: nonselective antagonists in TAAR1 counter-screen cells, counter-screen for hTAAR1 antagonist project, cell-based, fluorescence, calcium (AID 651780);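 further: CHO-Ga16 host cells stimulated with ATP at an EC80 level; 0% = agonist EC80 plus vehicle and 100% = vehicle without agonist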
condition-label: counterscreen cell line, antagonist mode, at 3 µM, stronger effect = higher value
About 1,800 (75%) of roughly 2,400 compounds were called active. The set was probably picked from earlier hits. A selection follows.
measured-quantity: inhibition (%)
Kindly provide the numeric value in % only, without the unit symbol.

Measured inhibition of COc1ccc(-c2cc(C(=O)N(C)CC(=O)Nc3ccccc3Cl)c3ccccc3n2)cc1OC : 27.4

// inhibition value for Cc1cccc(NC(=O)c2nc[nH]c2C(=O)NCC(=O)OCc2ccccc2)c1 : 26

Field inhibition (entry Cc1cccc(NC(=O)c2ccc(COc3ccccc3[N+](=O)[O-])o2)n1 ) reads 15.8

Entry O=C(COC(=O)c1ccccc1SCC(=O)N1CCCC1)Nc1ccccc1OC(F)F , inhibition reported as 27.2

Entry OC(c1ccccc1)(c1ccccc1)C1CCN(CCCOc2ccc(-c3ccsc3)cc2)CC1 ; inhibition = 40.2

Summary for this molecule, CCOc1cc(/C=N/NC(=O)c2cc(-c3ccccc3)nc3ccccc23)ccc1O : inhibition is 19

For this molecule ( Fc1ccc(/C=N/Nc2nc(-c3cccnc3)nc3ccccc23)cc1 ), measured inhibition is 25.1

The molecule listed as Cn1c(C(=O)NCCc2ccsc2)cc2c(=O)n(C)c3ccccc3c21 shows inhibition equal to 27.8

Per the record, COc1cc(/C=C2/C(=O)ON=C2C)ccc1OCc1ccccc1F has inhibition of 57.1

The molecule listed as COc1ccc(-c2cc(C(=O)N(C)Cc3ccccc3)c3ccccc3n2)cc1 has a reported inhibition of 27.7

Summary for this molecule, Cc1nn(-c2ccccc2)c(C)c1NC(=O)COC(=O)c1cc(Cl)ccc1O : inhibition is 32.8

According to the records, this molecule O=C(CCc1ccccc1)Nc1cccc(-c2nnc(-c3ccco3)o2)c1 displays inhibition of 25.8

Lab note: COc1ccc(C(=O)Nc2cccc(NC(=O)c3ccc(OC)cc3OC)n2)c(OC)c1 gave inhibition of 22.6

For record O=C(Nc1ccc(-c2nnc(-c3ccccc3)o2)cc1)c1ccc(Br)o1 the listed inhibition is 16

Kindly note the recorded inhibition for COc1ccc(NC(=O)c2cc(-c3ccc(C)o3)nc3ccccc23)cc1 , which is 36.1

The recorded inhibition for O=c1[nH]c(CSc2ncc(-c3ccc(F)cc3)n2Cc2ccco2)nc2ccccc12 is 29.8

Measured inhibition of C[C@H](NC(=O)c1nc[nH]c1C(=O)NCC(=O)OC(C)(C)C)C(=O)OCc1ccccc1 : 23.6

Reported inhibition of C=CCc1cc(S(=O)(=O)c2ccc(O)c(CC=C)c2)ccc1O : 18.2

For CCC(=O)Oc1cccc(C(=O)Nc2ccc(-c3nnc(-c4ccco4)o3)cc2)c1 the molecule record lists inhibition as 26.1

Per the records, this molecule ( CC(C)Oc1cc(F)ccc1-c1cc(C(=O)Nc2ccc(F)cc2)[nH]n1 ) has inhibition equal to 26.3

The measured inhibition associated with O=C(NCCN1CCOCC1)c1ccc(/C=C2\Sc3ccccc3N(Cc3ccc(F)cc3)C2=O)cc1 reads 35.2

Reference source for all entries: PubChem BioAssay AID651780
